Origin of measurements: paper PMC5963102

- tested_on: Asu-ACR-16 (nicotine sensitive nAChR) (Ascaris suum, UniProt F1KYJ9)
- Sequence (F1KYJ9 entry or part of it): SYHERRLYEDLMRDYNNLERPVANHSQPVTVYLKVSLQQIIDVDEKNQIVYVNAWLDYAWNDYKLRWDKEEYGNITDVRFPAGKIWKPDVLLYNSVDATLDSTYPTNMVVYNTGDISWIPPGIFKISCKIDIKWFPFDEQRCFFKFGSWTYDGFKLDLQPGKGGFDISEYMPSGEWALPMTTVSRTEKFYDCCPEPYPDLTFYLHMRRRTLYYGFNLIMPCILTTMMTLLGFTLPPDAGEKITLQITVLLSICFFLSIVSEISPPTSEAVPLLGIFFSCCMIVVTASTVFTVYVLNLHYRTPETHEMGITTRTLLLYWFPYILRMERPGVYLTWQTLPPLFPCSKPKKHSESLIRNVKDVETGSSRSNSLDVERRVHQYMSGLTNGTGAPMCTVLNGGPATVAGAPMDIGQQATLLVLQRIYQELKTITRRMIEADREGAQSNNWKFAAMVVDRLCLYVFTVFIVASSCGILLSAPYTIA
- method_notes: Two-electrode voltage-clamp on Asu-ACR-16 nAChR expressed in Xenopus laevis oocytes
- Type: cell-based

| compound | IC50 / nM |
| --- | --- |
| C[C@](C#N)(COc1cc(C#N)ccc1C(F)(F)F)NC(=O)c1ccc(SC(F)(F)F)cc1 [monepantel] | 200 |

---

- tested_on: Ode pyrantel/tribendimidine nAChR (Ode-UNC-29:Ode-UNC-38:Ode-UNC-63) (Oesophagostomum dentatum, UniProt E5KIX9+V5J2B2+V5J336)
- Sequence (V5J336 entry or part of it): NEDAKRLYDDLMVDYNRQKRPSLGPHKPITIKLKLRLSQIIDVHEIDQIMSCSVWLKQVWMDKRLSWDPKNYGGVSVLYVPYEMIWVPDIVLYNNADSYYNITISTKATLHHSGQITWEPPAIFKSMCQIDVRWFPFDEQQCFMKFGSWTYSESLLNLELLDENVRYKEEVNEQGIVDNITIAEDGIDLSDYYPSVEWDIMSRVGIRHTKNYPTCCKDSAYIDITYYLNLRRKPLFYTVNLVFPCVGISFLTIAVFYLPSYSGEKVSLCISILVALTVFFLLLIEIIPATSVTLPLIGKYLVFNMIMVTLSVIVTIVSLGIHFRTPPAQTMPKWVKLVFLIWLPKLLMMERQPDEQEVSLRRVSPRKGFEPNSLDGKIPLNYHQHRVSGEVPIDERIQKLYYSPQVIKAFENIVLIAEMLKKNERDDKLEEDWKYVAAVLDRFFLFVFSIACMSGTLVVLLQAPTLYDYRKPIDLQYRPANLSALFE
- Sequence (V5J2B2 entry or part of it): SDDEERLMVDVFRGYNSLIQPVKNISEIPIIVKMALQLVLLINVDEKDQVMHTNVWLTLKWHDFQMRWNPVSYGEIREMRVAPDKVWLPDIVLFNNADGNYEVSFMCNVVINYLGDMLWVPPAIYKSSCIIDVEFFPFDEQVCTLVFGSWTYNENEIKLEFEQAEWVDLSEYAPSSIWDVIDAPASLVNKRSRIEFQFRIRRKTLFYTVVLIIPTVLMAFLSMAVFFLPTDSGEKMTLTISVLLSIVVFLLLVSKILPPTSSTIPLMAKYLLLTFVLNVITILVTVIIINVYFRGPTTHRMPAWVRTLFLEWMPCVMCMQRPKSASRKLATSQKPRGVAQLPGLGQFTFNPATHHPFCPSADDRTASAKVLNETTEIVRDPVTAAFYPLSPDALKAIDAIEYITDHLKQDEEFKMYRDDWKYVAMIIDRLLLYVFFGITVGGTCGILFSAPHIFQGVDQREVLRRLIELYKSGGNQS
- Sequence (E5KIX9 entry or part of it): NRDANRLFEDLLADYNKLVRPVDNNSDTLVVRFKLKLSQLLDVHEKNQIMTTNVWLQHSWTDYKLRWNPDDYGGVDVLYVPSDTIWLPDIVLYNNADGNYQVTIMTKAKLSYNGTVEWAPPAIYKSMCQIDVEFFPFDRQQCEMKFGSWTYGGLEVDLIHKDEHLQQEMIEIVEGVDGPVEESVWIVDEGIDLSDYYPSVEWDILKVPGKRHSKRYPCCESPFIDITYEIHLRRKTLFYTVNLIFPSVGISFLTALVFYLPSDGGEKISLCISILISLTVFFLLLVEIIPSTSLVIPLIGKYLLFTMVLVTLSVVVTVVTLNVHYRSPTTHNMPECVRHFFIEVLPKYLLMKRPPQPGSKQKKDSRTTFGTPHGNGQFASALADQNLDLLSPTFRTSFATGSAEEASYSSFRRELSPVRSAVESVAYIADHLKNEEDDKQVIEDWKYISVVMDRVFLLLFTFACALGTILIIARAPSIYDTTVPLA
- method_notes: Two-electrode voltage-clamp on Ode pyrantel/tribendimidine receptors expressed in Xenopus laevis oocytes
pIC50: −log10 of the molar value.

| record_smiles | pIC50 |
| --- | --- |
| C[C@](C#N)(COc1cc(C#N)ccc1C(F)(F)F)NC(=O)c1ccc(SC(F)(F)F)cc1 | 5.77 |
